The following binders are shown together with reported Kd values.
Target entity: (NANP)6 (Plasmodium falciparum)
Protocol notes: SPR, antibody on chip
Readout type: Kd (nM)

Binder	Endpoint unit	Value observed
AB-007029 (antibody, V domains shown) VH: QVQLVESGGGVVQPGRSLRLSCTASGFTFSTYAMHWVRQSPGQGLQWVAVISYHSTNKYYEDSVRGRFTISRDNSKNTLYLQMNSLRAEDTAVYYCARDGYSSSFFDFWGQGTLVTVSS VL: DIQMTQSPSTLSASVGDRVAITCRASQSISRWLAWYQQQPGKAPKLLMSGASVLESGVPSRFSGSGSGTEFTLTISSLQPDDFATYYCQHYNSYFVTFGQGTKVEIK	nM	0.177
AB-007039 (antibody, V domains shown) VH: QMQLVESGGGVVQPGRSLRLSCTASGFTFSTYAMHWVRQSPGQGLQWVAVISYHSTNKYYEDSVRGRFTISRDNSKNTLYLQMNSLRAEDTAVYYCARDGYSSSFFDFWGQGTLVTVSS VL: DIQMTQSPSTLSASVGDRVAITCRASQSISRWLAWYQQQPGKAPKLLMSGASVLESGVPSRFSGSGSGTEFTLTISSLQPDDFATYYCQHYNSYSVTFGQGTKVEIK	nM	0.143
AB-007058 (antibody, V domains shown) VH: QMQLVESGGGVVQPGRSLRLSCTASGFTFSTYAMHWVRQSPGQGLQWVAVISYHSTNKYYEDSVRGRFTISRDNSKNTLYLQMNSLRAEDTAVYYCARDGYSTSFFDFWGQGTLVTVSS VL: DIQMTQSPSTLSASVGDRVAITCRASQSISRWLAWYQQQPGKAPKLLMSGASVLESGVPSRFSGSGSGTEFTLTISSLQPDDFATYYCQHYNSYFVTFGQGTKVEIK	nM	0.137
AB-007046 (antibody, V domains shown) VH: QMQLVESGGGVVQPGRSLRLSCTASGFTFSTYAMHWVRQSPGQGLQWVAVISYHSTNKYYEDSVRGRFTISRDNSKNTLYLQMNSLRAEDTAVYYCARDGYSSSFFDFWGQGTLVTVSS VL: DIQMTQSPSTLSASVGDRVAITCRASQSISRWLAWYQQQPGKAPKLLMSGASVLESGVPSRFSGSGSGTEFTLTISSLQPDDFATYYCQHYYSYFVTFGQGTKVEIK	nM	1.27
AB-007055 (antibody, V domains shown) VH: QMQLVESGGGVVQPGRSLRLSCTASGFTFSTYAMHWVRQSPGQGLQWVAVISYHSTNKYYEDSVRGRFTISRDNSKNTLYLQMNSLRAEDTAVYYCARDGYTSSFFDFWGQGTLVTVSS VL: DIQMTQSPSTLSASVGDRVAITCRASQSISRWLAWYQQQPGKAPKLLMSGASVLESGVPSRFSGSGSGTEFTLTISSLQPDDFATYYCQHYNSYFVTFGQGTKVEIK	nM	0.403
